Value source: ChEMBL document CHEMBL2046406

Target: Kappa-type opioid receptor (Homo sapiens)
Sequence (P41145 whole entry): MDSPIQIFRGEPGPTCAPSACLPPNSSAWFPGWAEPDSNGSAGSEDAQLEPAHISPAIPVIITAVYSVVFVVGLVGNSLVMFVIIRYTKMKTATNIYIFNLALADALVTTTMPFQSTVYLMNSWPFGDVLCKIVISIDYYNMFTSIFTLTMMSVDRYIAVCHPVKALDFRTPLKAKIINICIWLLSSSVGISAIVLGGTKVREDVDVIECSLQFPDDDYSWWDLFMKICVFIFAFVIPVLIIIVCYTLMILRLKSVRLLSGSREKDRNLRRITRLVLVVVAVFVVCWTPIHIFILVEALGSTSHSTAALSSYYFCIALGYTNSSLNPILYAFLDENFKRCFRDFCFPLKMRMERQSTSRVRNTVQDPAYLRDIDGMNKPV
Assay: Agonist activity at human kappa opioid receptor expressed in CHO cells assessed as stimulation of […]GTPgammaS binding after 60 mins by scintillation counting relative to control
Format: functional, cell-based
Here the recorded Emax is given for each entry.

Worked cases, answers included:
Oc1ccccc1CNc1ccc2c(c1)[C@@]13CCCC[C@H]1[C@@H](C2)N(CC1CC1)CC3: 110%
Oc1ccc(CNc2ccc3c(c2)[C@@]24CCCC[C@H]2[C@@H](C3)N(CC2CC2)CC4)cc1: 100%
c1cc2c(cc1CNc1ccc3c(c1)[C@@]14CCCC[C@H]1[C@@H](C3)N(CC1CC1)CC4)OCO2: 120%
O=[N+]([O-])c1cccc(CNc2ccc3c(c2)[C@@]24CCCC[C@H]2[C@@H](C3)N(CC2CCC2)CC4)c1: 140%
COc1cccc(CNc2ccc3c(c2)[C@@]24CCCC[C@H]2[C@@H](C3)N(CC2CC2)CC4)c1: 130%
Oc1cccc(CNc2ccc3c(c2)C[C@@H]2[C@@H]4CCCC[C@]34CCN2CC2CC2)c1: 160%

Which measured Emax value corresponds to `COc1ccc(CNc2ccc3c(c2)[C@@]24CCCC[C@H]2[C@@H](C3)N(CC2CC2)CC4)cc1` ?
130%

So what's the measured Emax for this one? `COc1ccc(CNc2ccc3c(c2)[C@@]24CCCC[C@H]2[C@@H](C3)N(CC2CCC2)CC4)cc1`
120%

====

Target: Kappa-type opioid receptor (Homo sapiens)
Assay: Agonist activity at human kappa opioid receptor expressed in CHO cells assessed as stimulation of […]GTPgammaS binding after 60 mins by scintillation counting relative to control
Format: functional, cell-based
measurement_label: Emax (%)
The reply should contain only the number, in %.

Some molecules with known Emax results, for comparison:
CN1CC[C@]23CCCC[C@H]2[C@H]1Cc1ccc(NCc2cccc(O)c2)cc13: 140
Oc1cccc(CNc2ccc3c(c2)[C@@]24CCCC[C@H]2[C@@H](C3)N(CC2CC2)CC4)c1: 98
Oc1ccc(CNc2ccc3c(c2)[C@@]24CCCC[C@H]2[C@@H](C3)N(CC2CCC2)CC4)cc1: 130
COc1cccc(CNc2ccc3c(c2)[C@@]24CCCC[C@H]2[C@@H](C3)N(CC2CCC2)CC4)c1: 120
c1cc2c(cc1CNc1ccc3c(c1)[C@@]14CCCC[C@H]1[C@@H](C3)N(CC1CCC1)CC4)OCO2: 130

Here is the next item to consider.
Emax for `Oc1ccccc1CNc1ccc2c(c1)[C@@]13CCCC[C@H]1[C@@H](C2)N(CC1CCC1)CC3` ?
130

====

Species: Homo sapiens
Test: Selectivity index, ratio of inhibition of human delta opioid receptor to inhibition of human kappa opioid receptor
Short version: Selectivity ratio at least 60 is Met, less is Not met.

Does `COc1ccccc1CN(C)c1ccc2c(c1)[C@@]13CCCC[C@H]1[C@@H](C2)N(CC1CCC1)CC3` have a reported Selectivity ratio of at least 60?
Not met

Could you verify whether the entry `COc1ccccc1CNc1ccc2c(c1)[C@@]13CCCC[C@H]1[C@@H](C2)N(CC1CC1)CC3` shows Selectivity ratio of no less than 60?
Met

Say whether `CN(Cc1cccc(O)c1)c1ccc2c(c1)[C@@]13CCCC[C@H]1[C@@H](C2)N(CC1CCC1)CC3` shows Selectivity ratio of 60 or more.
Not met

Say whether `Nc1ccc2c(c1)[C@@]13CCCC[C@H]1[C@@H](C2)N(CC1CC1)CC3` shows Selectivity ratio of 60 or more.
Met

Determine whether this compound has Selectivity ratio no lower than 60: `Oc1ccccc1CNc1ccc2c(c1)[C@@]13CCCC[C@H]1[C@@H](C2)N(CC1CCC1)CC3`
Met

Confirm if Selectivity ratio reported for the compound `Oc1ccc(CNc2ccc3c(c2)[C@@]24CCCC[C@H]2[C@@H](C3)N(CC2CC2)CC4)cc1` is 60 or above.
Not met

====

Parameter pEC50: see the listing below.
Biological target: Kappa-type opioid receptor (Homo sapiens)
Experiment: Agonist activity at human kappa opioid receptor expressed in CHO cells assessed as stimulation of […]GTPgammaS binding after 60 mins by scintillation counting
API: returns pEC50 as number; meaning -log10 of concentration in mol/L.

A selection of reference data follows.
Oc1ccccc1CNc1ccc2c(c1)[C@@]13CCCC[C@H]1[C@@H](C2)N(CC1CC1)CC3: 8.64
O=[N+]([O-])c1cccc(CNc2ccc3c(c2)[C@@]24CCCC[C@H]2[C@@H](C3)N(CC2CCC2)CC4)c1: 9.10
Oc1cccc(CNc2ccc3c(c2)C[C@@H]2[C@@H]4CCCC[C@]34CCN2CC2CC2)c1: 7.57
CN1CC[C@]23CCCC[C@H]2[C@H]1Cc1ccc(NCc2cccc(O)c2)cc13: 6.64
c1cc2c(cc1CNc1ccc3c(c1)[C@@]14CCCC[C@H]1[C@@H](C3)N(CC1CCC1)CC4)OCO2: 7.57

Could you now look at the following molecule, please?
I'd like to know its pEC50. The molecule in question is `COc1ccc(CNc2ccc3c(c2)[C@@]24CCCC[C@H]2[C@@H](C3)N(CC2CCC2)CC4)cc1`
7.30

====

In this section, each of the compounds is paired with its reported Selectivity ratio.
Species on record: Homo sapiens
Test: Selectivity index, ratio of inhibition of human kappa opioid receptor to inhibition of human mu opioid receptor
Form field (numeric): enter value without unit.

See these solved cases before continuing.
Oc1cccc(CNc2ccc3c(c2)[C@@]24CCCC[C@H]2[C@@H](C3)N(CC2CCC2)CC4)c1: 720
CN(Cc1ccc(Cl)cc1)c1ccc2c(c1)[C@@]13CCCC[C@H]1[C@@H](C2)N(CC1CCC1)CC3: 28
Oc1ccc(CNc2ccc3c(c2)[C@@]24CCCC[C@H]2[C@@H](C3)N(CC2CCC2)CC4)cc1: 340
Oc1cccc(CNc2ccc3c(c2)[C@@]24CCCC[C@H]2[C@@H](C3)N(CC2CC2)CC4)c1: 260

Okay, now this compound:
Fill in: Selectivity ratio of `COc1ccccc1CNc1ccc2c(c1)[C@@]13CCCC[C@H]1[C@@H](C2)N(CC1CCC1)CC3` is ___
28

====

Molecular target: Mu-type opioid receptor (Homo sapiens)
Sequence (P35372 whole entry): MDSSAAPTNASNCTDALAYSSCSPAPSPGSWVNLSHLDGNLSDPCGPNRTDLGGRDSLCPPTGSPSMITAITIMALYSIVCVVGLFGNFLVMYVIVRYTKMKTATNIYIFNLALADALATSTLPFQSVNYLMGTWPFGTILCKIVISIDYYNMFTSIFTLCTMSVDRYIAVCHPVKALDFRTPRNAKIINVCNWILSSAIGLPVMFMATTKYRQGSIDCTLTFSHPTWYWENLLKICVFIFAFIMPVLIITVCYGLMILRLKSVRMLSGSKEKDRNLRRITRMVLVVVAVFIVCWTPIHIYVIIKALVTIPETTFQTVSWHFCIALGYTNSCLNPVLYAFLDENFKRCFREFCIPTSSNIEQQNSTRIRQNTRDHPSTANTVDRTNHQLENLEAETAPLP
Experiment: Antagonist activity at human mu opioid receptor expressed in CHO cells assessed as inhibition of DAMGO-induced […]GTPgammaS binding after 60 mins by scintillation counting relative to control
Type: functional, cell-based
measurement_label: Imax

For orientation, consider the following solved cases.
Oc1ccc(CNc2ccc3c(c2)[C@@]24CCCC[C@H]2[C@@H](C3)N(CC2CC2)CC4)cc1: 80%
Oc1ccccc1CNc1ccc2c(c1)[C@@]13CCCC[C@H]1[C@@H](C2)N(CC1CCC1)CC3: 32%
c1cc2c(cc1CNc1ccc3c(c1)[C@@]14CCCC[C@H]1[C@@H](C3)N(CC1CC1)CC4)OCO2: 72%

GET /values?readout=Imax&item= `Oc1ccc(CNc2ccc3c(c2)[C@@]24CCCC[C@H]2[C@@H](C3)N(CC2CCC2)CC4)cc1`
56%

Which Imax value belongs to `COc1ccc(CNc2ccc3c(c2)[C@@]24CCCC[C@H]2[C@@H](C3)N(CC2CC2)CC4)cc1` ?
67%

What value of measured Imax is listed for `COc1cccc(CNc2ccc3c(c2)[C@@]24CCCC[C@H]2[C@@H](C3)N(CC2CCC2)CC4)c1` ?
66%

====

A collection of compounds and their measured Selectivity ratio
Species: Homo sapiens
Test: Selectivity index, ratio of inhibition of human mu opioid receptor to inhibition of human kappa opioid receptor
Lab note: jot the number down without any unit.

Quick one: Selectivity ratio of `Oc1ccccc1CNc1ccc2c(c1)[C@@]13CCCC[C@H]1[C@@H](C2)N(CC1CC1)CC3` ?
10

====

Species: Homo sapiens
Experiment: Selectivity index, ratio of inhibition of human delta opioid receptor to inhibition of human kappa opioid receptor
# if measured Selectivity ratio < 100: yes (1)  # else: no (0)

Previously resolved entries follow.
Oc1ccccc1CNc1ccc2c(c1)[C@@]13CCCC[C@H]1[C@@H](C2)N(CC1CC1)CC3: no (0)
c1ccc(CNc2ccc3c(c2)[C@@]24CCCC[C@H]2[C@@H](C3)N(CC2CC2)CC4)cc1: no (0)

Please determine if `COc1ccccc1CNc1ccc2c(c1)[C@@]13CCCC[C@H]1[C@@H](C2)N(CC1CCC1)CC3` is below 100 in terms of Selectivity ratio.
yes (1)

Answer whether the compound `Oc1cccc(CNc2ccc3c(c2)C[C@@H]2[C@@H]4CCCC[C@]34CCN2CC2CC2)c1` has Selectivity ratio strictly less than 100
no (0)

Does the reported Selectivity ratio of the following compound sit strictly below 100? `CN(Cc1ccc(O)cc1)c1ccc2c(c1)[C@@]13CCCC[C@H]1[C@@H](C2)N(CC1CCC1)CC3`
no (0)

Consider `CN(Cc1ccc(Cl)cc1)c1ccc2c(c1)[C@@]13CCCC[C@H]1[C@@H](C2)N(CC1CCC1)CC3` . Does its Selectivity ratio lie strictly below 100?
yes (1)

Is Selectivity ratio of `COc1ccc(CN(C)c2ccc3c(c2)[C@@]24CCCC[C@H]2[C@@H](C3)N(CC2CCC2)CC4)cc1` strictly below 100?
yes (1)
